- testTarget: Nuclear receptor subfamily 1 group I member 2 (Homo sapiens)
- test: Human pregnane X receptor (PXR) small molecule agonists, qHTS assay (AID 1346982); also: nearly all actives have a fitted effect of over 35% in size
- experimentalSetup: PXR-Luc HepG2, CYP3A4 luciferase reporter, 24 h; series mostly up to 92.4 µM
Records with an inconclusive call do not appear. The source made the active and inactive calls. Calls follow the shape of the dose curve; as a rule, active = well fitted activation curve with a large enough effect in the repeat runs; inconclusive = weak or mixed curves; inactive = no such curve, though single readings can be large or run the other way.
Write down one outcome, taken from active, inactive

Example entries and their recorded answers appear below.
COc1cc(/C=C/C(N)=O)cc(OC)c1OC	inactive
CC(C)(CO)C(O)C(=O)NCCCO (stereo not drawn)	inactive
CC(O)CC(C)O (stereo not drawn)	inactive

IN: Record lookup: outcome of this test for `CC(C)NC(=O)c1ccc(C=O)cc1` ?
OUT: inactive
